From: patent US9056874B2

biological target: factor B (Homo sapiens, UniProt P00751); test: factor B inhibition assay of Biological Example 1; type: biochemical; set-up: CVF-Bb complex prepared from purified cobra venom factor (1 μM), recombinant human complement factor B; made in house; host or cells: drosophila cells (factor B); E. coli (factor D used to form the complex); settings: IC50 (nM), assay of Biological Example 1 (Table 1)
Sequence (P00751 260-764 limits assumed): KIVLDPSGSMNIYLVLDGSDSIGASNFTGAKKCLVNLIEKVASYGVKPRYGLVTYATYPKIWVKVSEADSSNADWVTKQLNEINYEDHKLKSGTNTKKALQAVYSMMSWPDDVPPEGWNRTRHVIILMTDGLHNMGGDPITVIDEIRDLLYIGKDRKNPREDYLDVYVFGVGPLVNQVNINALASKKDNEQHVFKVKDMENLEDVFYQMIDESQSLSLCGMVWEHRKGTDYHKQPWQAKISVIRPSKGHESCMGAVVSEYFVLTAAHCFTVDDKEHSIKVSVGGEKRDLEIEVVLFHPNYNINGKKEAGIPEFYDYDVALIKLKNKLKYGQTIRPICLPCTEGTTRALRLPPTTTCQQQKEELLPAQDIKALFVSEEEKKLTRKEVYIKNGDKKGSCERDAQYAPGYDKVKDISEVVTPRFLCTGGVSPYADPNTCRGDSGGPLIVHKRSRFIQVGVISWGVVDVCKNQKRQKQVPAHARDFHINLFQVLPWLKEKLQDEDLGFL
Sequence (Q91132 23-649 partner limits assumed): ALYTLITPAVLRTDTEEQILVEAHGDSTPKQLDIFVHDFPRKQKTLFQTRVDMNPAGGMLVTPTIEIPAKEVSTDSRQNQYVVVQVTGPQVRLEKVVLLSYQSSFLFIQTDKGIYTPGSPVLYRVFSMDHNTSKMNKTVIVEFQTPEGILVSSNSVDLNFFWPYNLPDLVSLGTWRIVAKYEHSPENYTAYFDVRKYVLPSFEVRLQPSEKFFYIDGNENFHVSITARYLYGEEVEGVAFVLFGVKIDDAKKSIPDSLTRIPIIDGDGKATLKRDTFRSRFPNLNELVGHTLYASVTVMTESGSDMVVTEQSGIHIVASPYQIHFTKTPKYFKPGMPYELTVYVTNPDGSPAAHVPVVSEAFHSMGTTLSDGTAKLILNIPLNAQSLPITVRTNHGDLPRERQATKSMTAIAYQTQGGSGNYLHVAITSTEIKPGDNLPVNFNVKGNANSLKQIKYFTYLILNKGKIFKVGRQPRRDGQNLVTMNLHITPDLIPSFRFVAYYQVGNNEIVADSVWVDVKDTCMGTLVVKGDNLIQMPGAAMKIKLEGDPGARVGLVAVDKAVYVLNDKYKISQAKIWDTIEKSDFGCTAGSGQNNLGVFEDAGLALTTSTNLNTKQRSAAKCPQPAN
Sequence (Q91132 733-984 partner limits assumed): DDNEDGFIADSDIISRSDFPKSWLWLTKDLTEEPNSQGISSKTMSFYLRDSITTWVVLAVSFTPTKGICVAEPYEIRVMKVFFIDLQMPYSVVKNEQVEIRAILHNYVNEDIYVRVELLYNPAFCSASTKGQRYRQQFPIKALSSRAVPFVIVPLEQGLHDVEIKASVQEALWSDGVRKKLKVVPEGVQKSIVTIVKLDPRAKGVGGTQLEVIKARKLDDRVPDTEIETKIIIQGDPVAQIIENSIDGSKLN
Sequence (Q91132 1264-1642 partner limits assumed): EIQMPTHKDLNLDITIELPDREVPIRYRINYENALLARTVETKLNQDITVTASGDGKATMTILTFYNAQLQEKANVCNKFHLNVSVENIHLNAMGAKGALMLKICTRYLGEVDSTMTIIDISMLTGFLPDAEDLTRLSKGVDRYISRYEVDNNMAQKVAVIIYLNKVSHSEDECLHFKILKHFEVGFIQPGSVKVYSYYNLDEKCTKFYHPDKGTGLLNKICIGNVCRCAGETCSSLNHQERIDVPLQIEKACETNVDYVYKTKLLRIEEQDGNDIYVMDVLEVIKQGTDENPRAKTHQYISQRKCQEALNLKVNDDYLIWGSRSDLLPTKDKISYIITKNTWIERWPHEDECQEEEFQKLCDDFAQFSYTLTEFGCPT
Kindly apply the following: true (1) if IC50 is less than 90 nM, false (0) in every other case.

// query Quick check: IC50 of Cc1cc(C2CC2)c(C(C)(N)c2nc3cc(C#N)ccc3[nH]2)c2cc[nH]c12 (single isomer, unassigned; (+)) [102-D b) (+)] under 90 nM?
// result true (1)

// query Quick check: IC50 of COc1cc(C)c2[nH]ccc2c1C(C)(O)c1nc2cc(C#N)ccc2[nH]1 (racemic) [26-C b) (+)] under 90 nM?
// result true (1)

// query Quick check: IC50 of COc1cc(C)c2[nH]ccc2c1C(C)(O)c1nc2cc(C#N)ccc2o1 (racemic) under 90 nM?
// result true (1)

// query Quick check: IC50 of CCc1cc(C)c2[nH]ccc2c1C(C)(N)c1nc2cc(C#N)ccc2[nH]1 (single isomer, unassigned; (+)) [102-C b) (+)] under 90 nM?
// result true (1)

// query Quick check: IC50 of Cc1cc(OC(C)C)c(C(O)(c2nc3cc(C#N)ccc3[nH]2)C(F)(F)F)c2cc[nH]c12 (stereo not shown) under 90 nM?
// result false (0)

// query Quick check: IC50 of COC(c1nc2cc(C#N)ccc2[nH]1)c1c(CC(C)C)cc(C)c2[nH]ccc12 (single isomer, unassigned; (-)) [71 b) (−)] under 90 nM?
// result false (0)

---

Consider the following compounds; for each one, report its IC50.
biological target: factor B (Homo sapiens); experiment: factor B inhibition assay of Biological Example 1; format: biochemical; parameters: CVF-Bb complex prepared from purified cobra venom factor (1 μM), recombinant human complement factor B; made in house; host or cells: drosophila cells (factor B); E. coli (factor D used to form the complex); conditions: IC50 (nM), assay of Biological Example 1 (Table 1)
A bare number is not enough; add the unit after it.

// query Quick check: IC50 on factor B (Homo sapiens), item `CCc1cc(C)c2[nH]cc(C#N)c2c1Cc1nc2cc(C#N)ccc2[nH]1` ?
// result 110 nM

// query Quick check: IC50 on factor B (Homo sapiens), item Cc1cc(OC(F)F)c(C(C)(N)c2nc3cc(C#N)ccc3[nH]2)c2cc[nH]c12 (single isomer, unassigned; (+)) [5-E b) (+)] ?
// result 420 nM

// query Quick check: IC50 on factor B (Homo sapiens), item Cc1cc(C)c2[nH]cc3c2c1C(O)(c1nc2cc(C#N)ccc2[nH]1)CC3 (single isomer, unassigned) [93-F b) (tr = 7.2 min)] ?
// result 33800 nM

// query Quick check: IC50 on factor B (Homo sapiens), item `COc1cc(C)c2[nH]ccc2c1C(C)(C)c1nc2cc(C#N)ccc2[nH]1` ?
// result 5 nM

// query Quick check: IC50 on factor B (Homo sapiens), item COc1cc(C)c2[nH]ccc2c1C(C)(N)c1nc2cc(C#N)ccc2[nH]1 (single isomer, unassigned; (-)) [41-B b) (−)] ?
// result 9 nM

// query Quick check: IC50 on factor B (Homo sapiens), item Cc1cc(C2CC2)c(C(O)c2nc3cc(C#N)c(F)cc3[nH]2)c2cc[nH]c12 (centres unmarked) ?
// result 1930 nM

// query Quick check: IC50 on factor B (Homo sapiens), item COc1cc(C)c2[nH]ccc2c1C(c1nc2cc(C#N)ccc2[nH]1)(N(C)C)C(F)(F)F (racemic) ?
// result 490 nM

// query Quick check: IC50 on factor B (Homo sapiens), item Cc1cc(Br)c(C(N)(c2nc3cc(C#N)ccc3[nH]2)C(F)(F)F)c2cc[nH]c12 (single isomer, unassigned; (+)) [105-B b) (+)] ?
// result 90 nM

// query Quick check: IC50 on factor B (Homo sapiens), item COc1cc(C)c2[nH]ccc2c1C(N)(c1nc2cc(C#N)ccc2o1)C(F)(F)F (racemic) ?
// result 20 nM

// query Quick check: IC50 on factor B (Homo sapiens), item Cc1cc(OC(C)C)c(C(N)(c2nc3cc(C#N)ccc3[nH]2)C(F)(F)F)c2cc[nH]c12 (racemic) ?
// result 30 nM

// query Quick check: IC50 on factor B (Homo sapiens), item Cc1cc(C2CC2)c(C(C)(O)c2nc3cc(C#N)ccc3[nH]2)c2cc[nH]c12 (single isomer, unassigned; (+)) [79-C b) (+)] ?
// result 8 nM

// query Quick check: IC50 on factor B (Homo sapiens), item `Cc1cc(CO)c(Cc2nc3cc(C#N)ccc3[nH]2)c2cc[nH]c12` ?
// result 1760 nM

// query Quick check: IC50 on factor B (Homo sapiens), item Cc1cc(CO)c(C(O)c2nc3cc(C#N)ccc3[nH]2)c2cc[nH]c12 (single isomer, unassigned; (-)) [65-D b) (−)] ?
// result 270 nM

// query Quick check: IC50 on factor B (Homo sapiens), item CCOc1cc(C)c2[nH]ccc2c1C(C)(O)c1nc2cc(C#N)ccc2[nH]1 (single isomer, unassigned; (+)) [26-D b) (+)] ?
// result 360 nM

---

Consider the following molecules; for each one, report its IC50.
target: factor B (Homo sapiens); assay: factor B inhibition assay of Biological Example 1; type: biochemical; set-up: CVF-Bb complex prepared from purified cobra venom factor (1 μM), recombinant human complement factor B; made in house; host or cells: drosophila cells (factor B); E. coli (factor D used to form the complex); details: IC50 (nM), assay of Biological Example 1 (Table 1)
A bare number is not enough; add the unit after it.

// query Entry under review: CCc1cc(C)c2[nH]cc(C#N)c2c1C(OC)c1nc2cc(C#N)ccc2[nH]1 (single isomer, unassigned; (-)) . Reported IC50?
// result 420 nM

// query Entry under review: COc1cc(C)c2[nH]ccc2c1C(N)c1nc2cc(C#N)ccc2[nH]1 (single isomer, unassigned) [39-C b) (tr = 24.1 min)] . Reported IC50?
// result 8 nM

// query Entry under review: CCOCc1cc(C)c2[nH]ccc2c1C(O)c1nc2cc(C#N)ccc2[nH]1 (single isomer, unassigned; (-)) [66-D b) (−)] . Reported IC50?
// result 5110 nM

// query Entry under review: `CCc1cc(C)c(Cc2nc3cc(C#N)ccc3[nH]2)c2cc[nH]c12` . Reported IC50?
// result 22900 nM

// query Entry under review: CNC(c1nc2cc(C#N)ccc2[nH]1)(c1c(OC)cc(C)c2[nH]ccc12)C(F)(F)F (single isomer, unassigned; (-)) [38-B b) (−)] . Reported IC50?
// result 8 nM

// query Entry under review: Cc1cc(OC(F)F)c(C(C)(O)c2nc3cc(C#N)ccc3[nH]2)c2c(Cl)c[nH]c12 (single isomer, unassigned) . Reported IC50?
// result 4240 nM

---

biological target: factor B (Homo sapiens, UniProt P00751); experiment: factor B inhibition assay of Biological Example 1; format: biochemical; design: CVF-Bb complex prepared from purified cobra venom factor (1 μM), recombinant human complement factor B; made in house; host or cells: drosophila cells (factor B); E. coli (factor D used to form the complex); conditions: IC50 (nM), assay of Biological Example 1 (Table 1)
Consider the following compounds; for each one, report its log10 of IC50.
Heads up: the numbers are on a log10 scale; they represent IC50 in nM.

// query Entry under review: Cc1cc(C)c2[nH]ccc2c1Cc1nc2c(C)c(C#N)ccc2[nH]1 [Example 63-E] . Reported log10 of IC50?
// result 2.51

// query Entry under review: CCc1cc(C)c2[nH]ccc2c1C(OC)c1nc2cc(C#N)ccc2[nH]1 (single isomer, unassigned; (-)) [70-D b) (−)] . Reported log10 of IC50?
// result 2.68

// query Entry under review: Cc1cc(C(C)C)c(C(O)c2nc3cc(C#N)ccc3[nH]2)c2cc[nH]c12 (single isomer, unassigned; (+)) [67-D b) (+)] . Reported log10 of IC50?
// result 3.51

// query Entry under review: Cc1cc(C2CC2)c(C(C)(O)c2nc3cc(C#N)ccc3[nH]2)c2cc[nH]c12 (single isomer, unassigned; (-)) [79-C b) (−)] . Reported log10 of IC50?
// result 0.78

// query Entry under review: [2H]C([2H])([2H])Oc1cc(Cl)c2[nH]ccc2c1C(O)c1nc2cc(C#N)ccc2[nH]1 (centres unmarked) [Example 24-E] . Reported log10 of IC50?
// result 3.05

// query Entry under review: CCc1cc(C)c2[nH]ccc2c1C(NC)(c1nc2cc(C#N)ccc2[nH]1)C(F)(F)F (single isomer, unassigned; (+)) [107-B b) (+)] . Reported log10 of IC50?
// result 2.15

// query Entry under review: Cc1cc(OC(C)C)c(C(C)(O)c2nc3cc(C#N)ccc3[nH]2)c2cc[nH]c12 (single isomer, unassigned; (-)) [26-E b) (−)] . Reported log10 of IC50?
// result 2.23

// query Entry under review: Cc1cc(Br)c(C(N)(c2nc3cc(C#N)ccc3[nH]2)C(F)(F)F)c2cc[nH]c12 (single isomer, unassigned; (-)) [105-B b) (−)] . Reported log10 of IC50?
// result 1.30

// query Entry under review: Cc1cc(OC(F)F)c(C(C)(O)c2nc3cc(C#N)ccc3[nH]2)c2cc[nH]c12 (racemic) [6-B b) (−)] . Reported log10 of IC50?
// result 2.04

// query Entry under review: Cc1cc(C)c2[nH]ccc2c1Cc1nc2cc(C#N)cc(F)c2[nH]1 [Example 62-B] . Reported log10 of IC50?
// result 3.88

// query Entry under review: COC(C)(c1nc2cc(C#N)ccc2[nH]1)c1c(CC(C)C)cc(C)c2[nH]ccc12 (single isomer, unassigned; (+)) [84-E b) (+)] . Reported log10 of IC50?
// result 3.08

// query Entry under review: COc1cc(C)c2[nH]cc(Cl)c2c1C(O)c1nc2cc(C#N)ccc2[nH]1 (single isomer, unassigned; (+)) [28-C b) (+)] . Reported log10 of IC50?
// result 4.73

// query Entry under review: CCc1cc(C)c2[nH]ccc2c1C(O)c1nc2cc(C#N)ccc2[nH]1 (single isomer, unassigned; (-)) [67-A b) (−)] . Reported log10 of IC50?
// result 2.20

// query Entry under review: COc1cc(C)c2[nH]ccc2c1C(O)c1nc2cc(C#N)ccc2o1 (single isomer, unassigned; (+)) [125-B b) (+)] . Reported log10 of IC50?
// result 2.26
